# Tested on: KM12 colon
# test.method.notes: NCI tumour cell line growth inhibition, 48 h
Response key: satisfied means TGI >= 20 µM; not satisfied means TGI < 20 µM.

Request: Would you say CN(Cc1cc(Cl)cc(Cl)c1)CC(C(=O)c1ccccc1)c1ccccc1 (stereo unspecified) shows TGI at minimum 20 µM?
Result: not satisfied

Further cases:
Request: Could you tell me if the measured TGI of "O=C1OC(=O)c2cc(S(=O)(=O)c3ccc4c(c3)C(=O)OC4=O)ccc21" reaches 20 µM or more?
Result: satisfied

Request: Evaluate "COc1cc2c(=O)cnoc2cc1O" : TGI at minimum 20 µM?
Result: satisfied

Request: Does TGI meet or surpass 20 µM for "SCCSCCCSCCS" ?
Result: satisfied

Request: I'd appreciate it if you could say whether "O=[N+]([O-])CCc1cccc([N+](=O)[O-])c1" has TGI at least equal to 20 µM.
Result: satisfied

Request: Say whether "CCCCCCCCCCCCOCCCOP(=O)([O-])OCC[N+](C)(C)C" shows TGI of 20 µM or more.
Result: not satisfied

Request: Evaluate Cc1ccc2nc(-c3ccc(N4C(=O)C(Cl)C4c4ccc(Cl)cc4)cc3)sc2c1 (stereo unspecified) : TGI at minimum 20 µM?
Result: satisfied

Request: # check: TGI of "CC(=O)[CH-]C(=O)c1ccccc1.CC(=O)[CH-]C(=O)c1ccccc1.CCOCC[O-].CCOCC[O-].[Ti+4]" is greater than or equal to 20 µM
Result: satisfied

Request: Does the molecule "COc1ccc(OC)c(-c2cc(-c3ccc(Cl)cc3)nn2-c2ccc(S(=O)(=O)NC(C)=O)cc2)c1" have recorded TGI that is 20 µM or more?
Result: satisfied

Request: Determine whether this molecule has TGI no lower than 20 µM: "CN1C(=O)N[C@H]2[C@@H]3NC(=O)c4ccc(Br)n4[C@@H]3C[C@]21O"
Result: not satisfied

Request: Reported TGI at or above 20 µM? "CCOC(=O)CNc1nc(=O)c2c(=O)oc(Cl)cc2o1"
Result: satisfied

###

# System: NCI-H522 lung
# test.method.notes: NCI tumour cell line growth inhibition, 48 h
Mark False for TGI values under 30 µM, and True for everything at or above.

Example cases with answers are listed next.
Request: Is it the case that "Nc1ccc(C(=O)c2cn(CCN3CCOCC3)c3ccccc23)c2ccccc12" has TGI reaching or exceeding 30 µM?
Result: True

Request: Answer whether TGI of COc1ccc(C2C3COc4ccccc4C3=NN2c2ccccc2)cc1 (centres undefined) is greater than or equal to 30 µM.
Result: True

Request: Does TGI meet or surpass 30 µM for "O=C(O)C(Cl)(c1ccccc1)c1ccccc1" ?
Result: True

Request: I'd appreciate it if you could say whether CC1=C(C(=O)c2ccccc2)C23C(=O)N(c4ccccc4)C(=O)C2=C(O)C=CC3(O)N1 (centres undefined) has TGI at least equal to 30 µM.
Result: False

Request: Determine whether this molecule has TGI no lower than 30 µM: "FC(F)(F)c1cccc(-c2nc3ccccc3c3c2[C@@]2(N4CCCC4)CCCC[C@@H]32)c1"
Result: True

Continuing:
Request: I'd appreciate it if you could say whether Cc1ccc(C)c(C2NC(=O)c3ccccc3N2)c1 (centres undefined) has TGI at least equal to 30 µM.
Result: False

Request: Is TGI at least 30 µM? Consider O=C(Nc1cccc(O)c1)C(=O)C(C(=O)c1ccc(Cl)c(Cl)c1)C1OC(=O)c2ccccc21 (centres undefined)
Result: False

// data source = PubChem BioAssay (NCI)
